So I've got a bunch of molecules here, and I need their Pc values.
Test system: Caco-2
Assay: Caco-2 permeability coefficient value was determined
// return numeric value only (unit: ×10⁻⁶ cm/s, not printed)

Case COc1ccc2nc(-c3cccs3)nc(NN3C(=O)C=C(C)C3=O)c2c1 , Caco-2, Pc recorded as 1.62

Case CC1=CC(=O)N(Nc2nc(-c3cccs3)nc3cc(N(C)C)ccc23)C1=O , Caco-2, Pc recorded as 1.41

Case COc1cccc2nc(-c3cccs3)nc(NN3C(=O)C=C(C)C3=O)c12 [AS-602868] , Caco-2, Pc recorded as 14.1

Case COc1cccc2nc(C(F)(F)F)nc(NN3C(=O)C=C(C)C3=O)c12 , Caco-2, Pc recorded as 1.49

Case CC1=CC(=O)N(Nc2nc(C(F)(F)F)nc3cc(N(C)C)ccc23)C1=O , Caco-2, Pc recorded as 1.68
